assay: yeast display, Sf9 membrane polyspecificity reagent, FACS + sequencing; frameworks hold sequencing errors

| ITEM SEQUENCE | polyreactivity (PSR sort gate) |
| --- | --- |
| QVQLVESGGGLVQAGGSLRLSCAASGFIFERNAMGWYRQAPGKERELVAGISNNGGSTYYADSVKGRFTISRDNAKNTVYLQMNSLKPEDTAVYYCARDPNDDNSFPYDYWGQGTQVTVSS | low polyreactivity |
| QVQLVESGGGLVQAGGSLRLSCAASGRIFVPNAMGWYRPPPGKERELVAAINWGGGSTYYADSVKGRFTISRDNAKNTVYLQMNSLKPEDTAVYYCAADHPYTIGVLPNQQFDYWGQGTQVTVSS | low polyreactivity |
| QVQLVESGGGLVQAGGSLRISCAASGYTVKSYAMGWYRQAPGKERELVAAISNGGNTYYADSVKGRFTISRDNAKNTVYLQMNSLKPEDTAVYYCAARYGYFYSRYDHWGQGTQVTVSS | low polyreactivity |
| QVQLVESGGGLVQAGGSLRLSCAASGSILGFNAMGWYRQPPGKERELVAAIRWSGDSTYADSVKGRFTISRDNAKNSVYLQMNSLKPEDTAVYYCNAVTTYGYWYKYDYWGQGTQVTVSS | low polyreactivity |

---

assay: yeast display, Sf9 membrane polyspecificity reagent, FACS + sequencing; frameworks hold sequencing errors

| ITEM SEQUENCE | polyreactivity (PSR sort gate) |
| --- | --- |
| QVQLVESGGGLVQAGGSLRLSCAASGFTIWDYAMGWYRQAPGKERELVAAISWSGGSTYYADSVKGRFTISRDNAKNTVYLQMNSLKPEDTAVYYCNAVHYSHHGYDYWGQGTQVTVSS | low polyreactivity |
| QVQLVESGGGLVQSGGSLRLSCDASGRIFSRYAMGWYIQAPGKEREFVAAISRSGTSTYYADSVKVRFTISRDNAKNTVYLQMNSLKPEDTAVYYCAADYPAVISIRRYDYWGQGTQVTVSS | low polyreactivity |

---

experiment: yeast display, Sf9 membrane polyspecificity reagent, FACS + sequencing; frameworks hold sequencing errors
OBSERVABLE: polyreactivity (PSR sort gate)

| ITEM SEQUENCE | polyreactivity (PSR sort gate) |
| --- | --- |
| QVQRVESGGGLVQAGGSLRLSCAASGLIFYRYVMGWYRQAPGKETELVAAISGNGASTYYADSVKGRFTISRDNAKNTVYLQMHSLKPEDTAVYYCNADVYVSSKTHSSSPQWWGYDYWGQGTQVTVSS | low polyreactivity |
| QVQLVESGGGLVQAGGSLRLSCAASGRIFDFYAMGWYSQAPGKERELVAAIASSVGNTYYADSVTGRFTISRDNAKNTVSLQMISLKPEDTAVYYCADYSYVRSSYEVEYDYWGQGTQVTVSS | low polyreactivity |
| QVQLVESGGGLVQAGGSLRLSCADSGFTFTYYDMGWYRQAPGKERELVAAISSGGSTNYADSVKGRFTISRDNAKNTVYLQMNSLKPEDTAVYYCAASITHYWYGYWGQGTQVTVSS | high polyreactivity |
| QVQLVESGGGLVQAGGSLRLSCAASGSTFGVNAMGWYRQAPGKERELVATISRGTSTNYADSVKGRFTISRDNAKNTVYLQMHSLKPEDTAVYYCAKRVFYPGAYRYYYWGQGTQVTVSS | high polyreactivity |
| QVQLVESGGGLVQAGGSLRLSCAASGSTFSCYAMGWYRQAPGKERELVAAISSSGGTSTYADSVKARFTISRDNAKKTVYLQMNSLKPEDTAVYYCAARQYRRLRDYRHDYWGQGTQVTVSS | high polyreactivity |

Data request: Identify measured polyreactivity (PSR sort gate) associated with "QVQLVESGGGLVQAGGSLRLSCAASGRTFYYYAMGWYRQAPGKERELVAGITATGSSTYYADSVKGRFTISRDNAKYTVYLQMNSLKPEDTAVYYCAADGYRIDVYHADYRYDYWGQGTQVTVSS"
Data returned: low polyreactivity

Data request: Identify measured polyreactivity (PSR sort gate) associated with "QVQLVESGGGLVQAGGSLRLSCAASGSTFKRNAMGWYRQAPGNERELVAAITDNTSTTFYADSVKGRFTISRDNAKNTVYLQMNSLKPEDTAVYYCAADHSGGSRYDYWGQGTQVTVSS"
Data returned: low polyreactivity

Data request: Identify measured polyreactivity (PSR sort gate) associated with "QVQLVESGGGLVQAGGSLRLSCAASGSTSWIYAMGWYRQAPGQERELVAAISGRDGSTNYADSVKGRFTISRDNAKNTVYLQMNSLKPEDTAVYYCASYLYKSRYLPEYDYWGQGTQVTVSS"
Data returned: high polyreactivity

Data request: Identify measured polyreactivity (PSR sort gate) associated with "QVQPVESAGGLVQAGGSLRLSCSASGFIFKYYAMGWYRQAPGKERELVAAISYSGTRTYYADSVKGRFTISRDNAKNTVYLQMNSLKPEDTAVYYCNARDWSFVGTYDYWGQGTQVTVSS"
Data returned: high polyreactivity

Data request: Identify measured polyreactivity (PSR sort gate) associated with "QVQLVESGGGLVQAGGSLRLSCAASGFTFRWYAMGWYRQAPGKERELVADITRHGGSTYYADSVKGRFTISRDNAKNTVYLQMNSLKPEDTAVYYCAKQNETPWQAYYFDWPEFDYWGQGTQVTVSS"
Data returned: low polyreactivity

Data request: Identify measured polyreactivity (PSR sort gate) associated with "QVQLVESGGGLVQAGGSLRLSCAASGSIFADYAMGWYRQAPGKERELVAVISRRGGTTYYADSVKGRFTISRDNAKNTVYLQMNSLKPEDTAVYYCAARRSFNEYDYWGQGTQVTVSS"
Data returned: high polyreactivity

---

test: yeast display, Sf9 membrane polyspecificity reagent, FACS + sequencing; frameworks hold sequencing errors
OBSERVABLE: polyreactivity (PSR sort gate)

| ITEM SEQUENCE | OBSERVABLE | RESULT |
| --- | --- | --- |
| QVQLVESGGGLVQAGGSLRLSCAASGSIFGGNTMGWYRQAPGKERELVAAIRYSGGSTYYADSVKGRFTISRDNAKNTVYLQMNSLKPEDTAVYYCATSYRQYGYYWYDYWGQGTQVTVSS | polyreactivity (PSR sort gate) | high polyreactivity |
| QVQLVESGGGLVQAGGSLRLSCAASGSIFISYAKGWYRQAPGKERELVAAINYSGGSTYYADSVKGRFTISRDNAKNTVYLQMNSLKPEDTAVYYCAKRSTYRYYGYKLRDYWGQVTQVTVSS | polyreactivity (PSR sort gate) | low polyreactivity |
| QVQLVESGGGFVQAGGSLRLSCAASGRIFGVYALGWYRPAPGKERELVAAISYSGGSTYYADSVKGRFTISRVNAKNTVYLQMNSLKPEDTAVYYCAAKIFPKGDYWGQGTQVTVSS | polyreactivity (PSR sort gate) | high polyreactivity |
| QVQLVESGGALVQAGGSLRLSCAACGRTFWYNAMGWYRQAPGKERELVAAITRGGGRTYYADSVKGRFTISRDNAKNTVYLQMNSLKPEDTAVYYCAADSYYDMNYWGQGTQVTVSS | polyreactivity (PSR sort gate) | low polyreactivity |

// moving on: another record for polyreactivity (PSR sort gate)
Data request: Identify measured polyreactivity (PSR sort gate) associated with "QVQLVESRGGLVQAGGSLRLSCAASGSTFYFYDMGLYRQAPGKERELVGAISSSGGDTYYADSVKGRFTISRDNAKNTVYLQMNSLKPEDTAVYYCAAGQLYSGYEYWGQGTQVTVSS"
Data returned: low polyreactivity

---

test: yeast display, Sf9 membrane polyspecificity reagent, FACS + sequencing; frameworks hold sequencing errors
OBSERVABLE: polyreactivity (PSR sort gate)

As a guide, the following entries are already answered.
| ITEM SEQUENCE | polyreactivity (PSR sort gate) |
| --- | --- |
| QVQLVESGGGLDQAGGSLRLSCAASGRTFTHNVMGWYRQAPGKEMELVAGISSTGGSTYYADSVKVRFTISRDNAKNTVYLQMNSLKPEDTAVYYCAKQRRSFYDFFHYDYWGLGTQVTVSS | low polyreactivity |
| QVQLVESGGGLVQAGGSLRLSCAPSGRIFGTNDMGWYRQAPGKERELVADITSGGSTNYADSVKGSFTISRDNAMNTVYLPMNSLKPEDSAVYYCNARHHNKVARFDYWGQGTQVTVSS | low polyreactivity |
| QVQLVESGGGLVQAGGSLRLSCAASGFTFRYNAMGWYRQAPGKERELVAAITNSGGGTYYADSVKGRFTISRDNAKNTVYLQMNSLKPEDTAVYYCNAKRTNRYVWGKYDYWGQGTQVTVSS | high polyreactivity |
| QVQLVESRGGVVQAGGSLRLSSDDSGFTFYYYAMGWYRQAPGKERQLVAPITKSGGSTYYADSVKWRFTISRDNSKNSLYVKFNRLKPEDTAVYYCNKVTYSSDQYFGGDGYFWGQGTQVTVTS | high polyreactivity |
| QVQLVESGGGLVQAGGSLRLSCASSGSTFYHYAMVWYRQAPGKERELVAAISWSGGSTYYADSVKGRFTISRDNAKNTVYLQMNSLKPEDTAVYYCAARGRARQRTSFEYWGQGTQVTVSS | high polyreactivity |
| QVQLVESGGGIVQAGGSLRLSCAASGSIFRRNAMGWYRQSPGKEMEMVASISRGGSTYYADSVKGRFTISRDNAKNTVYLQMNSLKPEDTSVYYCNVVPRWLSWVPTTRRIGDDDYWGQGTQVTVSS | high polyreactivity |
| QVQLVESGGGLVQAGGRLRLSCAASGSIFRSNAMGWYRLAPGKEREFVAASTRSGGSTYYADTVKGRFTISRDNAKNTVYLQMNSLKPAATAVYYCAADWKSYAYYYWGQGTQVTVSS | high polyreactivity |
| QVQLVESGGGLVQAGGSLRLSCAASGRIFYGNTMGWYRQAPGKERELVAAITWRGGSTYYADSVKGRFTISRDNAKITVYLQMNSLKPEDTAVYYCAAVSYRGRGYWGQGTQVTVSS | high polyreactivity |
| QVQLVESGGGLVQAGGSLRLSCAASGRIFTPYAMGWYRQARGKEREVVAVIRDGSTYYADSVKGSFTISRDNAKNTVYLQMNSLKPEDTAVYYCRYDIWVWWSGAYDYWGQGTQVTVSS | low polyreactivity |
| QVQLVESGGGLVQAGGSLRLSCAASGSIFTYNTMGWYRQAPGKERELVAAISGRGGRTYYADSVKGRFTISRDNAKKTVYLQMNSLKPEDTAVYYCNARKYSQKIYGNYNYWGQGTQVTVSS | high polyreactivity |

Data request: Identify measured polyreactivity (PSR sort gate) associated with "QVQLVESGGGLVQAGGSLRLSCAASVRIFATNAMGWSRQAPGKERELVARISRRGGSTNYADSVKGRFTISRDNAKNTVYLQMNSLKPEDTAVYYCNVSFYWYRWYALLDYWGQVTQVTVSS"
Data returned: high polyreactivity
